system: Human V1b receptor (Homo sapiens (Human), UniProt P47901)
Sequence (P47901 whole entry): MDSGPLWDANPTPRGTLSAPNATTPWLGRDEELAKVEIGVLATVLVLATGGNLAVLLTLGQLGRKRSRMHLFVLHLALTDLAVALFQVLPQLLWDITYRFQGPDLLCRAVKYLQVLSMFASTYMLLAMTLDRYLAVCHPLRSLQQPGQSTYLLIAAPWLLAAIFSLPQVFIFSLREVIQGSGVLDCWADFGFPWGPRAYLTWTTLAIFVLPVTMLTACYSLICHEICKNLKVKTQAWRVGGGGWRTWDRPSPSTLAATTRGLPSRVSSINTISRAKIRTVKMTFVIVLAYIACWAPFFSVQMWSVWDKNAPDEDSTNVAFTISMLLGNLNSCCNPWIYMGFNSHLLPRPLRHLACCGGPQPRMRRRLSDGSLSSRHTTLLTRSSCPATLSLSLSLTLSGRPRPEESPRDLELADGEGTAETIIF
assayName: Binding Test for V1b Receptor ([3H]AVP, crude membrane preparation of 293FT cells)
reportedConditions: inhibition of [3H]AVP binding (0.4 to 1 nmol/L), room temperature, 60 minutes
reportedProperty: pIC50
// pIC50: -log10(molar conc.)

querySmiles: CC(C)NC(=O)Cn1nc(-c2ccc(CCN3C4CCC3COC4)cn2)nc1-c1ccc(F)c(Cl)c1
pIC50: 8.55

Q: Consider the molecule `CC(C)NC(=O)Cn1cc(-c2ccc(CCN3C4CCC3COC4)cc2)nc1-c1cccc(Cl)c1` and give its recorded pIC50.
Ans: 9.09

* * *

system: Human V1b receptor (Homo sapiens (Human))
assayName: Binding Test for V1b Receptor ([3H]AVP, crude membrane preparation of 293FT cells)
reportedConditions: inhibition of [3H]AVP binding (0.4 to 1 nmol/L), room temperature, 60 minutes
reportedProperty: IC50

The cases that follow already have their IC50 on record.
molecule: COc1cccc(-n2c(CC(=O)NC(C)C)nn(-c3ccc(CCN4C5CCC4COC5)cc3)c2=O)c1
IC50: 10 to 100 nM
//
molecule: COc1cncc(-c2nc(-c3ccc(CCN4CCOCC4)cc3)cn2CC(=O)NC(C)C)c1
IC50: 10 to 100 nM
//
molecule: CC(C)NC(=O)Cn1cc(C(=O)N(C)C2CCC(N3CCOCC3)CC2)nc1-c1cccc(Cl)c1 (stereo not shown)
IC50: 100 to 1000 nM

Q: Consider the molecule `COc1cccc(-c2nc(-c3ccc(CCN4CCC(C#N)CC4)cc3)nn2CC(=O)NC(C)C)c1` and give its recorded IC50.
Ans: 100 to 1000 nM

* * *

system: Human V1b receptor (Homo sapiens (Human))
assayName: Binding Test for V1b Receptor ([3H]AVP, crude membrane preparation of 293FT cells)
reportedConditions: inhibition of [3H]AVP binding (0.4 to 1 nmol/L), room temperature, 60 minutes
reportedProperty: IC50

molecule: COc1cccc(-c2nc(-c3ccc(CCN4CCCCC4)cc3)cn2CC(=O)NC(C)C)n1
IC50: 10 to 100 nM

Q: Consider the molecule `CC(C)NC(=O)Cc1nn(-c2ccc(CCN3CC4(CCOCC4)C3)cc2)c(=O)n1-c1cccc(Cl)c1` and give its recorded IC50.
Ans: 10 to 100 nM

Q: Consider the molecule `CC(C)NC(=O)Cc1cn(-c2ccc(CCN3CC4(COC4)C3)cc2)nc1-c1cccc(Cl)c1` and give its recorded IC50.
Ans: 10 to 100 nM

Q: Consider the molecule CC(C)NC(=O)Cn1cc(C(=O)NC2CCC(N3CCOCC3)CC2)nc1-c1cccc(Cl)c1 (stereo not shown) and give its recorded IC50.
Ans: 100 to 1000 nM

* * *

system: Human V1b receptor (Homo sapiens (Human))
assayName: Binding Test for V1b Receptor ([3H]AVP, crude membrane preparation of 293FT cells)
reportedConditions: inhibition of [3H]AVP binding (0.4 to 1 nmol/L), room temperature, 60 minutes
Procedure: Binding Test for V1b Receptor Human V1b receptor was transiently expressed in 293FT cells (Invitrogen). […] The GF/C filter was dried and after adding a scintillator, the residual radioactivity on the filter was measured using TopCount (PerkinElmer Inc.). The radioactivity in the presence of unlabeled AVP at […] was defined as 0%, and the radioactivity in the absence of unlabeled AVP was defined as 100%. […]
reportedProperty: IC50

The cases that follow already have their IC50 on record.
compound: CC(C)NC(=O)Cc1nn(-c2ccc(CCN3CCCC3)cc2)c(=O)n1-c1cccc(Cl)c1
system: Human V1b receptor (Homo sapiens (Human))
IC50: 0.01 to 0.1 µM
--
compound: COc1cc(-c2nc(-c3ccc(CCN4CCC(C#N)CC4)cc3)cn2CC(=O)NC(C)C)ccc1F
system: Human V1b receptor (Homo sapiens (Human))
IC50: 0.1 to 1 µM
--
compound: CC(C)NC(=O)Cn1cc(-c2ccc(CCN3CCC(O)C3)cc2)nc1-c1cccc(Cl)c1 (stereo not shown)
system: Human V1b receptor (Homo sapiens (Human))
IC50: 0.01 to 0.1 µM

Q: Consider the compound `COc1cc(CCN2C3CCC2COC3)ccc1-n1nc(CC(=O)NC(C)C)n(-c2cccc(Cl)c2)c1=O` and give its recorded IC50.
Ans: 0.1 to 1 µM

Q: Consider the compound `COc1cccc(-c2nc(-c3ccc(CCN4CCN(C(C)=O)CC4)cc3)nn2CC(=O)NC(C)C)c1` and give its recorded IC50.
Ans: 0.1 to 1 µM

Q: Consider the compound `COc1cccc(-c2nc(-c3ccc(CCN4CCN(C)CC4)cc3)nn2CC(=O)NC(C)C)c1` and give its recorded IC50.
Ans: 0.1 to 1 µM

Q: Consider the compound COc1cccc(-c2nc(-c3ccc(CCN4CCOCC4C)cc3)nn2CC(=O)NC(C)C)c1 (stereo not shown) and give its recorded IC50.
Ans: 0.01 to 0.1 µM

* * *

Reported pIC50 by item:
system: UniProt P47901
assayName: Binding Test for V1b Receptor ([3H]AVP, crude membrane preparation of 293FT cells)
reportedConditions: inhibition of [3H]AVP binding (0.4 to 1 nmol/L), room temperature, 60 minutes
pIC50: −log10 of the molar value.

Q: Consider the compound COc1cccc(-c2nc(-c3ccc(CCN4CC5(CCOCC5)C4)cc3)nn2CC(=O)NC(C)C)c1 [Example B-37] and give its recorded pIC50.
Ans: > 8.00

* * *

system: Human V1b receptor (Homo sapiens (Human), UniProt P47901)
assayName: Binding Test for V1b Receptor ([3H]AVP, crude membrane preparation of 293FT cells)
reportedConditions: inhibition of [3H]AVP binding (0.4 to 1 nmol/L), room temperature, 60 minutes
Procedure: Binding Test for V1b Receptor Human V1b receptor was transiently expressed in 293FT cells (Invitrogen). […] The GF/C filter was dried and after adding a scintillator, the residual radioactivity on the filter was measured using TopCount (PerkinElmer Inc.). The radioactivity in the presence of unlabeled AVP at […] was defined as 0%, and the radioactivity in the absence of unlabeled AVP was defined as 100%. […]
Reported pIC50 by item:
// pIC50: -log10(molar conc.)

The cases that follow already have their pIC50 on record.
molecule: COc1cc(-n2nc(CC(=O)NC(C)C)n(-c3cccc(Cl)c3)c2=O)ccc1CCN1CCOCC1
recordedNumber: 7.92

molecule: CC(C)NC(=O)Cc1cn(-c2ccc(CCN3CCOCC3)cc2)nc1-c1cccc(Cl)c1
recordedNumber: 8.07

molecule: CC(C)NC(=O)Cc1nc(-c2ccc(CCN3C4CCC3COC4)cc2)nn1-c1cccc(Cl)c1
recordedNumber: 8.06

Switching to the query record.
Q: Consider the molecule `COc1cc(-c2nc(-c3ccc(CCN4CCCCC4)cc3)cn2CC(=O)NC(C)C)ccc1F` and give its recorded pIC50.
Ans: 7.80

* * *

Reported IC50 by item:
system: Human V1b receptor (Homo sapiens (Human), UniProt P47901)
assayName: Binding Test for V1b Receptor ([3H]AVP, crude membrane preparation of 293FT cells)
reportedConditions: inhibition of [3H]AVP binding (0.4 to 1 nmol/L), room temperature, 60 minutes

compound: CC(C)NC(=O)Cc1nn(-c2ccc(CC(C)N3CCOCC3)cn2)c(=O)n1-c1cccc(Cl)c1 (centres unmarked)
IC50: 10 to 100 nM
--
compound: CC(C)NC(=O)Cn1cc(-c2cccc(OCCCN3CCCCC3)c2)nc1-c1cccc(Cl)c1
IC50: 100 to 1000 nM
--
compound: CC(C)NC(=O)Cc1nn(-c2ccc(CCN3CCOCC3C)cc2)c(=O)n1-c1cccc(Cl)c1 (centres unmarked)
IC50: 10 to 100 nM
--
compound: COc1cccc(-c2nc(-c3ccc(CCN4CCC(C)(O)CC4)cc3)nn2CC(=O)NC(C)C)c1
IC50: 10 to 100 nM

Q: Consider the compound `CC(C)NC(=O)Cc1nn(-c2ccc(CCN3C[C@@H](C)O[C@@H](C)C3)cc2)c(=O)n1-c1cccc(Cl)c1` and give its recorded IC50.
Ans: 100 to 1000 nM

Q: Consider the compound `CC(C)NC(=O)Cc1nn(-c2ccc(CCN3CC4(COC4)C3)cc2)c(=O)n1-c1cccc(Cl)c1` and give its recorded IC50.
Ans: 10 to 100 nM

Q: Consider the compound `COc1cccc(-c2nc(-c3ccc(CCN4C[C@@H](C)O[C@@H](C)C4)cc3)nn2CC(=O)NC(C)C)c1` and give its recorded IC50.
Ans: 10 to 100 nM

Q: Consider the compound `CC(C)NC(=O)Cc1nc(-c2cccc(CCN3CCCCC3)c2)sc1-c1cccc(Cl)c1` and give its recorded IC50.
Ans: 100 to 1000 nM

Q: Consider the compound `COc1cccc(-n2c(CC(=O)NC(C)(C)C)nn(-c3ccc(CCN4C5CCC4COC5)cn3)c2=O)c1` and give its recorded IC50.
Ans: 10 to 100 nM

Q: Consider the compound `CC(C)(C)NC(=O)Cc1nn(-c2ccc(CCN3CCOCC3)cn2)c(=O)n1-c1cccc(Cl)c1` and give its recorded IC50.
Ans: 10 to 100 nM

Q: Consider the compound `CC(C)NC(=O)Cn1cc(-c2ccc(CCN3CCC(O)CC3)cc2)nc1-c1cccc(Cl)c1` and give its recorded IC50.
Ans: 10 to 100 nM

Q: Consider the compound `CC(C)NC(=O)Cc1nc(-c2ccc(CCN3CCCCC3)cc2)oc1-c1cccc(Cl)c1` and give its recorded IC50.
Ans: 10 to 100 nM

Q: Consider the compound `CC(C)NC(=O)Cn1cc(-c2ccc(CCN3CC4(COC4)C3)cc2)nc1-c1cccc(Cl)c1` and give its recorded IC50.
Ans: 10 to 100 nM

Q: Consider the compound `COc1cccc(-c2nc(-c3ccc(CCN4CC5(COC5)C4)cc3)nn2CC(=O)NC(C)C)c1` and give its recorded IC50.
Ans: < 10 nM

Q: Consider the compound `COc1cccc(-c2nc(-c3ccc(CCN4C5CCC4COC5)cc3)cn2CC(=O)NC(C)C)c1` and give its recorded IC50.
Ans: 6.3 nM

Q: Consider the compound `COc1cc(-c2nc(-c3ccc(CCN4CCCC4)cc3)cn2CC(=O)NC(C)C)ccc1F` and give its recorded IC50.
Ans: 10 nM

Q: Consider the compound `CC(C)NC(=O)Cc1nc(-c2ccc(CCN3CCOCC3)cc2)oc1-c1cccc(Cl)c1` and give its recorded IC50.
Ans: 27 nM

Q: Consider the compound `CC(C)NC(=O)Cc1nn(-c2ccc(CCN3CC=CCC3)cc2)c(=O)n1-c1cccc(Cl)c1` and give its recorded IC50.
Ans: 100 to 1000 nM

Q: Consider the compound `COc1cccc(-c2nc(-c3ccc(CCN4CCOCC4)cc3)c(C)n2CC(=O)NC(C)C)c1` and give its recorded IC50.
Ans: 20 nM

Q: Consider the compound `COc1cc(-c2nc(-c3ccc(CCN4CCC[C@H]4C)cc3)cn2CC(=O)NC(C)C)ccc1F` and give its recorded IC50.
Ans: 17 nM
